# ELISA (T/B) annotations
# Target Desc: T1, human plasma kallikrein (human, UniProt P03952 20-390; P03952 391-638)
# T1 construct: also called pKal; Human pKal
# T1 sequence (P03952 20-390, chain 1 of 2): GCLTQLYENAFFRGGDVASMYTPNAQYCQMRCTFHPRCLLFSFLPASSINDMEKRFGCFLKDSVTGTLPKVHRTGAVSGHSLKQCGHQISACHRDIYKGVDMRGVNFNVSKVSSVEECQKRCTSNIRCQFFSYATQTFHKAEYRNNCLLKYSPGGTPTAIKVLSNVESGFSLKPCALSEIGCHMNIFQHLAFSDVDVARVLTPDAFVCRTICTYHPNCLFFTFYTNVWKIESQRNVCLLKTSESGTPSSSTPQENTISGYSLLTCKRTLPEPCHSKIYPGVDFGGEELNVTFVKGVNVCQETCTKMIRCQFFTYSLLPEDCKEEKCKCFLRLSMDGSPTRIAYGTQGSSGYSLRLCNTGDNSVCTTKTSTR
# T1 sequence (P03952 391-638, chain 2 of 2): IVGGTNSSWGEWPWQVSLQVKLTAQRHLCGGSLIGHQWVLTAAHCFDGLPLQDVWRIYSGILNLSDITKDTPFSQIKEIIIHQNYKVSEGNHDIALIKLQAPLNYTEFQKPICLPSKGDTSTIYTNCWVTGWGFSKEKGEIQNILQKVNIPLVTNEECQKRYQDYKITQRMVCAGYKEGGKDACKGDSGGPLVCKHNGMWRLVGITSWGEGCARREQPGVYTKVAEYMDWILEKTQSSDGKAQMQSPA
# Experiment Notes: ELISA, biotinylated pKal signal over streptavidin background
# Source text: Abbreviations used: “T/B” is the ELISA signal obtained using of the “target” (biotinylated plasma kallikrein) divided by the ELISA signal of the “background” (streptavidin); both of which were coated on microtiter plates, “nd” is not determined. The symbol “q” refers to the amber suppressible stop codon (TAG), which is translated as glutamine (Q) in strains of E. coli such as the TG1 cells that were used to express the Fab fragments.
Please respond with the number in T/B and leave the unit unwritten.

Worked cases, answers included:
M27-H10 (Fab, V domains shown, HC as printed runs into CH1) VH: EVQLLESGGGLVQPGGSLRLSCAASGFTFSAYQMAWVRQAPGKGLEWVSVIYSSGGYTDYADSVKGRFTISRDNSKNTLYLQMNSLRAEDTAVYYCARHNWNDGAFDIWGQGTMVTVSS VL: DIQMTQSPSSLSASVGDRVTITCRASQSISNYLNWYQQKPGKAPKFLIYAASSLQSGVPSRFSGSGSGTDFTLSISSLQPEDFATYYCQQSYSTPQTFGQGTKVEMK    12.4
M29-G08 (Fab, V domains shown, HC as printed runs into CH1) VH: EVQLLESGGGLVQPGGSLRLSCAASGFTFSYYHMWWVRQAPGKGLEWVSGISPSGGFTFYADSVKGRFTISRDNSKNTLYLQMNSLRAEDTAVYYCARDYYYDSSGYSPLGYWGQGTLVTVSS VL: DIQMTQSPATLSASPGETVTLSCRASQNIGNDVAWYRQRPGQAPRLLIHHASTRAYGIPARLRGSGSATEFTLTITSLEPEDFAIYYCQQFYDWPAHTFALGTRLEIKR    40.4
M28-F07 (Fab, V domains shown, HC as printed runs into CH1) VH: EVQLLESGGGLVQPGGSLRLSCAASGFTFSDYTMYWVRQAPGKGLEWVSSIVPSGGHTLYADSVKGRFTISRDNSKNTLYLQMNSLRAEDTAVYYCAKDHLSSWYGGFFDYWGQGTLVTVSS VL: DIQMTQSPSSVSASVGDRVTITCRASQGISSWLAWYQQKPGKAPKLLIYATSGLQSGVPSRFSGSGSGTDFTLTISSLQPEDFATYYCQQAKSFPLTFGGGTRVEIK    33
M9-D08 (Fab, V domains shown, HC as printed runs into CH1) VH: EVQLLESGGGLVQPGGSLRLSCAASGFTFSWYKMMWVRQAPGKGLEWVSSIYPSGGWTNYADSVKGRFTISRDNSKNTLYLQMNSLRAEDTAVYYCTRGSPWGDDAFDIWGQGTMVTVSS VL: DIQMTQSPSSLSASVGDRVTLTCRASRTISFYLNWYQQKAGKAPELLIYGGSSLHSGVPSRFSGSGSGTDFSLTISNLQPEDIAVYYCQQSFSSPWTFGQGTKVEIK    35.9

Please turn your attention to the following entry.
*Q* Endpoint output: ELISA (T/B) of M9-A08 (Fab, V domains shown, HC as printed runs into CH1) VH: EVQLLESGGGLVQPGGSLRLSCAASGFTFSAYEMWWVRQAPGKGLEWVSYIGSSGGSTSYADSVKGRFTISRDNSKNTLYLQMNSLRAEDTAVYYCTGGNSSSFDAFDIWGQGTMVTVSS VL: DIQMTQSPSSLSASVGDRVTVTCRASQRISTYLNWYQQKPGKAPKLLISGASSLQSGVPSRFSGSGSGTDFTLTISSLQPDDFATYYCQQSYNTPRTFGQGTKVEIR . Value?
*A* 5.5
